The following compounds are listed with their measured AUC(0-t) values.
Test protocol: Rodent pharmacokinetic study
Format: in vivo
Experimental parameters: Wistar, in vivo; Wister rat/Male, 5 mg/kg, Intravenous
Structures can show the parent of a compound that is named as a salt.
Please give a number only; it is taken to be in ng·h/mL.

Compound	Reported measurement
CNCC1CC2CC2N1c1cncc(Br)c1 (stereo not shown)	2540
NCC1CC2CC2N1c1cncc(Cl)c1.O=C(O)/C=C/C(=O)O (stereo not shown)	1760
NCC1CC2CC2N1c1cccnc1 (stereo not shown) [Example 18, fumarate]	1760

Okay, next one:
Exercise: Which measured AUC(0-t) value corresponds to CNCC1CC2CC2N1c1cccnc1.Cl (stereo not shown) ?
Key: 1670

* * *

The following compounds are listed with their measured Tmax values.
Test protocol: Rodent pharmacokinetic study
Assay type: in vivo
Experimental parameters: Wistar, plasma; Wister rat/Male, 5 mg/kg, Per-Oral

Examples with their reported Tmax follow.
Compound	Tmax
CNCC1CC2CC2N1c1ccc(C(F)(F)F)nc1.O=C(O)/C=C/C(=O)O (stereo not shown)	19.8 min
CNCC1CC2CC2N1c1cncnc1.O=C(O)/C=C/C(=O)O (stereo not shown)	37.8 min
NCC1CC2CC2N1c1cncnc1.O=C(O)/C=C/C(=O)O (stereo not shown)	4.8 min

Okay, next one:
Exercise: Which measured Tmax value corresponds to NCC1CC2CC2N1C(=O)c1ccco1.O=C(O)C(O)C(O)C(=O)O (stereo not shown) ?
Key: 19.8 min

* * *

Test protocol: Rodent pharmacokinetic study
Format: in vivo
Experimental parameters: Wistar, plasma; Wister rat/Male, 5 mg/kg, Per-Oral
Method: Rodent Pharmacokinetic Study Three to five animals were housed in each cage. Animals were kept fasted over night and maintained on a 12 hours light/dark cycle. […] At each time point blood was collected by jugular vein. […] The concentrations of the NCE compound in plasma were determined using LC-MS/MS method. […] Pharmacokinetic parameters Cmax, Tmax, AUCt, T1/2 and Bioavailability were calculated by non-compartmental model using software WinNonlin version 5.0.1.
The following compounds are listed with their measured Cmax values.
Please give a number only; it is taken to be in ng/mL.

Examples with their reported Cmax follow.
Compound	Cmax [ng/mL]
NCC1CC2CC2N1C(=O)c1ccco1.O=C(O)C(O)C(O)C(=O)O (stereo not shown)	998
NCC1CC2CC2N1c1cncnc1.O=C(O)/C=C/C(=O)O (stereo not shown)	1100
CNCC1CC2CC2N1c1ccc(C(F)(F)F)nc1.O=C(O)/C=C/C(=O)O (stereo not shown)	2310

Okay, next one:
Exercise: Which measured Cmax value corresponds to CNCC1CC2CC2N1c1cncnc1.O=C(O)/C=C/C(=O)O (stereo not shown) ?
Key: 685

* * *

The following compounds are listed with their measured Tmax values.
Test protocol: Rodent pharmacokinetic study
Type: in vivo
Experimental parameters: Wistar, in vivo; Wister rat/Male, 15 mg/kg, Per-Oral
Please give a number only; it is taken to be in min.

Compound	Tmax / min
CNCC1CC2CC2N1c1cccnc1.Cl (centres unmarked) [Example 4]	19.8

Exercise: Which measured Tmax value corresponds to CNCC1CC2CC2N1c1cncc(Br)c1 (centres unmarked) [Example 11] ?
Key: 18.6

* * *

Test protocol: Rodent pharmacokinetic study
Type: in vivo
Experimental parameters: Wistar, in vivo; Wister rat/Male, 5 mg/kg, Per-Oral
Counter-ions that a name gives are not always drawn.
The following molecules are listed with their measured half-life values.
Please give a number only; it is taken to be in h.

Molecule	half-life [h]
NCC1CC2CC2N1c1cccnc1 (centres unmarked) [Example 18, fumarate]	1.75

Okay, next one:
Exercise: Which measured half-life value corresponds to NCC1CC2CC2N1c1cncc(Cl)c1.O=C(O)/C=C/C(=O)O (centres unmarked) ?
Key: 1.75

Reference source for all entries: patent US8653071B2
